Source: paper PMC5830651

Target: SRC (Homo sapiens)
Construct: recombinant
Sequence (P12931 2-536): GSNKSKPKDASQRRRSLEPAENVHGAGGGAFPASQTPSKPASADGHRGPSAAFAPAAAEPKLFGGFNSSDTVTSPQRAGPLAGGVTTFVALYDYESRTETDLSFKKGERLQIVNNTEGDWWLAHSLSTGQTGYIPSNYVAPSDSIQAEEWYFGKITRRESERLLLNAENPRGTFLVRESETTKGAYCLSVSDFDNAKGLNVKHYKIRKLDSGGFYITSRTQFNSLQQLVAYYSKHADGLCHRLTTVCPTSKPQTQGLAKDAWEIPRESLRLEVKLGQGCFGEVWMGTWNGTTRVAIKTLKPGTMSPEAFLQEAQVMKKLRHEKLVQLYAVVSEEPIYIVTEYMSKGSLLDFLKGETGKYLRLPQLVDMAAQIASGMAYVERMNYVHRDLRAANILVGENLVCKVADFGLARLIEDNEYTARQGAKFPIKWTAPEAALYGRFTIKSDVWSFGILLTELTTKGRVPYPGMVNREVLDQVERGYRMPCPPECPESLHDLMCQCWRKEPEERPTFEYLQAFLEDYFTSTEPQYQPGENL
Experiment: in vitro kinase assay
Assay type: biochemical
Reported endpoint: IC50

Qu. Which IC50 is reported for this molecule? CC[C@H](Nc1nc(NCc2cccnc2)c2ncn(C(C)C)c2n1)[C@@H](C)O
Ans. > 10 µM

###

Molecular target: LCK (Homo sapiens, UniProt P06239)
Construct: recombinant
Sequence (P06239 2-509): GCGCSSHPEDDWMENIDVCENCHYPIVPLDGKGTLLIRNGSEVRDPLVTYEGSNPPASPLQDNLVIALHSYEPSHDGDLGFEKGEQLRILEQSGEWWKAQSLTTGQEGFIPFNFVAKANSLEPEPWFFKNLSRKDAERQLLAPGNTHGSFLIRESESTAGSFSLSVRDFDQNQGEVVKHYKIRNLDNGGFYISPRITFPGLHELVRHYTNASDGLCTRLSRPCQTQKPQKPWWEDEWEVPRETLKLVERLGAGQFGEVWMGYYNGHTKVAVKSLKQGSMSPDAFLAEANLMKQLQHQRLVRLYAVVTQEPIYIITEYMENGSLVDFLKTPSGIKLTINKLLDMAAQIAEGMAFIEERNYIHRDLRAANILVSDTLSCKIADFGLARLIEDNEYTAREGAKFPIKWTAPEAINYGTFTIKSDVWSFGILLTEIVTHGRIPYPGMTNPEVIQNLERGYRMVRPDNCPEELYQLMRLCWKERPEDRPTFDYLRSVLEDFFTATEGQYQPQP
Assay: in vitro kinase assay
pIC50: −log10 of the molar value.
Reported endpoint: pIC50

Qu. Which pIC50 is reported for this molecule? CC[C@H](Nc1nc(NCc2cccnc2)c2ncn(C(C)C)c2n1)[C@@H](C)O [CCT068127]
Ans. < 5.00

###

Molecular target: CDK6/D3 (Homo sapiens)
Construct: recombinant human kinase complex; with G1/S-specific cyclin-D3
Sequence (Q00534 whole entry): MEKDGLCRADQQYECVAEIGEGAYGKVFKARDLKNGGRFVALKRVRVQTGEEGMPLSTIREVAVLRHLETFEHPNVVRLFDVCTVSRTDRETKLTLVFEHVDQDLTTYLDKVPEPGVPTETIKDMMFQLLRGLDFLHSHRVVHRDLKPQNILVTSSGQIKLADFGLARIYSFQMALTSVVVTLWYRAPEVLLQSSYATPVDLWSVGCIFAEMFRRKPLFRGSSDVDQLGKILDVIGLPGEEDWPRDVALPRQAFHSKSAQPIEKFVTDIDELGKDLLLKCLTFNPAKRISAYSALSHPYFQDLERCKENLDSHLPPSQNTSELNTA
Sequence (P30281 whole entry partner): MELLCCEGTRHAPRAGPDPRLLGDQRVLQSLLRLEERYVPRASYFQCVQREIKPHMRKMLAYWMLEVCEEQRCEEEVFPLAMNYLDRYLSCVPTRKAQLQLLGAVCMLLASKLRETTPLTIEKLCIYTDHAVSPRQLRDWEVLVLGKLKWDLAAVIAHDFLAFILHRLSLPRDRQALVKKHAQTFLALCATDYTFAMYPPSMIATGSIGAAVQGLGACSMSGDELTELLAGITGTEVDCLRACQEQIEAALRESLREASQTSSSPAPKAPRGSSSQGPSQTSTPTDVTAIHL
Test: in vitro kinase assay
Details: read-out: CCT068127 Mean IC50 (μmol.L^-1) ± SE; mean of three independent repeats
Reported endpoint: pIC50
Here pIC50 is given on a logarithmic scale as minus log10 of the concentration in mol/L.

Qu. Which pIC50 is reported for this molecule? CC[C@H](Nc1nc(NCc2cccnc2)c2ncn(C(C)C)c2n1)[C@@H](C)O
Ans. 5.21
